Experiment: Volume of distribution at steady state in Sprague-Dawley rat at 1 mg/kg, iv by HPLC method
Assay type: ADME, organism-based
Settings: in vivo, read-out: Vdss
MEASURE: Vd (L/kg)
Just the number please, in L/kg, no unit attached.

The compound listed as "COc1ncc(-c2ccc3ncnc(-c4cccc(C(=O)N5CCN(C(C)=O)CC5)c4)c3c2)cc1C#N" shows Vd equal to 2

----------
Assay: Tmax in Sprague-Dawley rat at 30 mg/kg, po by HPLC method
Type: ADME, organism-based
Conditions: in vivo
MEASURE: Tmax

Data point: "COc1ncc(-c2ccc3ncnc(-c4cccc(C(=O)N5CCN(C(C)=O)CC5)c4)c3c2)cc1C#N" ; Tmax = 5.3 h

----------
Recorded solubility thermodynamic, one value per entry.
Test: Equilibrium solubility of the compound at pH 6.8 by high-throughput assay
Format: physicochemical
Settings: buffer
Expressed in µM, but write only the number.

{"columns": ["CHEMICAL_SMILES", "MEASURE", "OBSERVED_RESULT"],
 "data": [
  ["CC(=O)N1CCN(C(=O)c2cccc(-c3ncnc4ccc(-c5cnc6ccccc6c5)cc34)c2)CC1", "solubility thermodynamic", 610],
  ["COc1ncc(-c2ccc3ncnc(-c4cccc(C(=O)N5CCN(C(C)=O)CC5)c4)c3c2)cc1C(F)(F)F", "solubility thermodynamic", 380]
]}

// next entry
solubility thermodynamic reported for this molecule "COc1ccc(-c2ccc3ncnc(-c4cccc(C(=O)N5CCN(C)CC5)c4)c3c2)cc1OC" : 850
